The measured values listed here are drawn from patent US7998987B2.

Recorded Ki values for a group of molecules are listed next.
# experimentalTarget: c-Met (Homo sapiens, UniProt P08581)
# Sequence (P08581 25-1390): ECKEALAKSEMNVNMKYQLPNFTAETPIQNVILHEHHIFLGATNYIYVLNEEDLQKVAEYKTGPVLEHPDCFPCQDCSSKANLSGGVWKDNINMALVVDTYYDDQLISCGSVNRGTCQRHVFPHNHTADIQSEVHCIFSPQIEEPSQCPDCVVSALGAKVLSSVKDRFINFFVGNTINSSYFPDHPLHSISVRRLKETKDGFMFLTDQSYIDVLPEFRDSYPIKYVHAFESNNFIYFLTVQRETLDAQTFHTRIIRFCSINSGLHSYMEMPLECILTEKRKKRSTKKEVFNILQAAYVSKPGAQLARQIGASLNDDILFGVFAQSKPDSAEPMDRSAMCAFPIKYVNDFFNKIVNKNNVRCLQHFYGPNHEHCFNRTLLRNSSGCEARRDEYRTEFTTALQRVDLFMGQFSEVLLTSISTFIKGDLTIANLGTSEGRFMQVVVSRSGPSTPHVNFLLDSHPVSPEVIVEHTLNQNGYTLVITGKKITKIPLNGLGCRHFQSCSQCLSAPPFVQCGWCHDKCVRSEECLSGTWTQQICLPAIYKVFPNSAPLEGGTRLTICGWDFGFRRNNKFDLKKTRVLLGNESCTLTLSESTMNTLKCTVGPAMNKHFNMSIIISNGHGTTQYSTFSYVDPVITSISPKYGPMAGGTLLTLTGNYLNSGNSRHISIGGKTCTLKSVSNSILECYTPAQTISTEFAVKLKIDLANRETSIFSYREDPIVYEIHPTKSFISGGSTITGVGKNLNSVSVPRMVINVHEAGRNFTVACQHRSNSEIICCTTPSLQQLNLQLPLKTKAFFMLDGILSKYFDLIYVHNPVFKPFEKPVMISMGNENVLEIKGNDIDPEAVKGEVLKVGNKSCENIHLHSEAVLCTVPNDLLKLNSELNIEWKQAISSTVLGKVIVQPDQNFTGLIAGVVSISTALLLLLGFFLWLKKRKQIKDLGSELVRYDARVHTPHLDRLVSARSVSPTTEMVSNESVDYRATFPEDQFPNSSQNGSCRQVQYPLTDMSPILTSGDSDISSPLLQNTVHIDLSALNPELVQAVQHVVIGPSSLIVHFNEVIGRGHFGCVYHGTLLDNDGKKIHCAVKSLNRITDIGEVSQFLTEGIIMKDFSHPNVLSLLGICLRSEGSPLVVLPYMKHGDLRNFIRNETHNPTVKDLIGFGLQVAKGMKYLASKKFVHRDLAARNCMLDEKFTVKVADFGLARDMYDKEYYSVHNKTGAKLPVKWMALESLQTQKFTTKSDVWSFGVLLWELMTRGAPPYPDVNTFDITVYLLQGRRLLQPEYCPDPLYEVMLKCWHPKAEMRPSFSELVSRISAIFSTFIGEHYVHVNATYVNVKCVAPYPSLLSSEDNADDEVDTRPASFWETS
# methodDescription: Ki determination for the inhibition of c-Met kinase activity (standard coupled enzyme system)
# Format: biochemical
# measurementConditions: coupled enzyme system, 200 μM ATP, 10 μM polyGluTyr, 80 nM c-Met, 30° C.; read-out: c-Met Ki

- Oc1cccc(CCc2nnc3sc(Nc4cccc(Cl)c4F)nn23)c1: 100 to 2000 nM
- Nc1nn2c(Cc3ccc(O)cc3)nnc2s1: 100 to 2000 nM
- Oc1ccc(Cc2nnc3ccc(Nc4cc(F)cc(F)c4)nn23)cc1: < 100 nM
- CC(c1nnc2sc(Nc3cccc(Cl)c3)nn12)n1ccc2ncccc21 (centres unmarked): < 100 nM

Consider the record given below.
Annotate the molecule `COc1cccc(Nc2ccc3nnc(Cc4ccc5c(c4)OCO5)n3n2)c1` with its measured Ki.
100 to 2000 nM

----------
# experimentalTarget: UniProt:P08581
# methodDescription: Ki determination for the inhibition of c-Met kinase activity (standard coupled enzyme system)
# Format: biochemical
# measurementConditions: coupled enzyme system, 200 μM ATP, 80 nM c-Met, 30° C.; read-out: c-Met Ki
measurementName: Ki

Below: 8 molecules and their reported Ki.
* COC(=O)c1c(O)cccc1NCc1nnc2ccc(Nc3cccc(Cl)c3)nn12 | 0.1 to 2 µM
* COc1cccc(NCc2nnc3ccc(Nc4cccc(Cl)c4)nn23)c1 | 0.1 to 2 µM
* Oc1ccc2c(ccn2Cc2nnc3ccc(Nc4cccc(Cl)c4)nn23)c1 | > 2 µM
* Clc1cccc(Nc2ccc3nnc(COc4cccc(Cl)n4)n3n2)c1 | > 2 µM
* Fc1ccc(Cc2nnc3n2N=C(c2ccccc2)CS3)cc1 | > 2 µM
* Nc1cc(F)ccc1OCc1nnc2ccc(Nc3cccc(Cl)c3)nn12 | > 2 µM
* CCC(c1ccc(O)cc1)c1nnc2ccc(Nc3cccc(Cl)c3)nn12 (stereo not drawn) | < 0.1 µM
* Oc1ccc(Cc2nnc3ccc(NC4CCC4)nn23)cc1 | 0.1 to 2 µM

Annotate the molecule `Clc1cccc(Nc2ccc3nnc(Cc4cc5c(cc4Cl)OCO5)n3n2)c1` with its measured Ki.
0.1 to 2 µM

----------
# experimentalTarget: c-Met (Homo sapiens)
# methodDescription: Ki determination for the inhibition of c-Met kinase activity (standard coupled enzyme system)
# Assay type: biochemical
# measurementConditions: coupled enzyme system, 200 μM ATP, 80 nM c-Met, 30° C.; read-out: c-Met Ki
Recorded Ki values for a group of molecules are listed next.

Below: 4 molecules and their reported Ki.
- CC1=Nn2c(Cc3ccc(O)cc3)nnc2SC1 [Compound 542]: 100 to 2000 nM
- Clc1cccc(Nc2ccc3nnc(Cc4ccccc4)n3n2)c1 [Compound 315]: > 2000 nM
- Clc1cccc(Nc2ccc3nnc(CNc4cccc(OCc5ccccc5)c4)n3n2)c1 [Compound 333]: > 2000 nM
- C[C@@H](c1ccc(O)cc1)c1nnc2ccc(Nc3cc(Cl)cnc3Cl)nn12 [Compound 509]: < 100 nM

Consider the record given below.
Annotate the molecule C[C@@H](c1ccc(O)cc1)c1nnc2ccc(NC3CCCC(C(F)(F)F)C3)nn12 (some centres unmarked) [Compound 521] with its measured Ki.
< 100 nM

----------
# experimentalTarget: c-Met (Homo sapiens, UniProt P08581)
# methodDescription: Ki determination for the inhibition of c-Met kinase activity (standard coupled enzyme system)
# Assay type: biochemical
# measurementConditions: coupled enzyme system, 200 μM ATP, 80 nM c-Met, 30° C.; read-out: c-Met Ki
measurementName: Ki

Below: 4 compounds and their reported Ki.
* C[C@@H](c1ccc(O)cc1)c1nnc2ccc(Nc3ccc(Cl)nc3)nn12 | 100 to 2000 nM
* C[C@@H](c1ccc(O)cc1)c1nnc2ccc(Sc3nc4ccccc4[nH]3)nn12 | < 100 nM
* Clc1cccc(Nc2ccc3nnc(CNc4cccc5[nH]ccc45)n3n2)c1 | > 2000 nM
* Clc1cccc(Nc2ccc3nnc(COc4ccc5c(c4)OCO5)n3n2)c1 | > 2000 nM

Consider the record given below.
Annotate the compound `Oc1ccc(Cc2nnc3ccc(NC4CC4)nn23)cc1` with its measured Ki.
100 to 2000 nM
